- Protocol Details: yeast display, Sf9 membrane polyspecificity reagent, FACS + sequencing; frameworks hold sequencing errors
Value Type: polyreactivity (PSR sort gate)

[
  {
    "Seq String": "QVQLVESGGGLVQAGASLRLSCASSGSISKSYAMGWYRQAPGKERELVAAISWRGGSTYADSVKGRFTISRDNAKNTVYLQMNSLKPVDTAVYYCAATNYGTFWVGQSERYDYWGQGTEVTVSS",
    "Measurement": "low polyreactivity"
  },
  {
    "Seq String": "QVQLVESGGGLVQAGGSLRLSCAASGRIFASNAMGWYRPAPGKERELVAAITTTGGSTYYADSVKGRFTISRDNAKNTVYLQMNSLKPEDTAVYYCAKRLGYRYPTYDYWGQGTQVTVSS",
    "Measurement": "high polyreactivity"
  },
  {
    "Seq String": "QVQLVESGGALVQAGCSLSLSCAASGRIFSHNAMGWYRQAPGKERELVAGISSGGGTTYADSVKGRFTISRDNAKNNVYLQMNSLKPEDTAVYYCNKQDQPVGRSGYPYGYDYWGQGTQVTVSS",
    "Measurement": "low polyreactivity"
  },
  {
    "Seq String": "QVELVESGGGLVQGGGTLRLSCAASGRTFNRYAMGWYRQAPGKERELVASITRSGGSTYYADSVKGRFTISRENAKNTVSLQMNSLKPDHTAVYYCANRSSGCFGYWGQGTQVTLSS",
    "Measurement": "high polyreactivity"
  },
  {
    "Seq String": "QVQLVESGGGLVQAGGSLRLSCAASGLTFKWYAMGWYRQAPGKERELVAASSRDGSTYYADSVKGRFTLSRDNAKNTVYLQMTSLKPEDTAVDYCAADIWPSSLLADEYDYWGQGTQVTVSS",
    "Measurement": "high polyreactivity"
  },
  {
    "Seq String": "QVQLVDSGGGLVQAGGSLRFSCAASGSIFPVNVMGWYRQAPGKERELVADITSTGTYYADSVKGRFTISRDNAKNTDYLQMNSLKPEDTAVYYCAKAGGSWYRRYYYWGQGTQVTVSS",
    "Measurement": "high polyreactivity"
  },
  {
    "Seq String": "QDQLVESGGGFVQAGGSLRLSCAASGLTFWYYAMGWYRQATGKEVELVAANDWSGASTYYADSVKGRFTISRDNAKNTVYLQMISLQPEDTAVYYCNTVYYIGDDYWGQGTQVTVSS",
    "Measurement": "high polyreactivity"
  },
  {
    "Seq String": "QVQLVESGGGLVQAGGSLRLSCAASGSIFGRNTMGWYRQAPGKERELVAAISSRGTSTYYADSVKGRFTISRDNAKNTVYLQMNSLKPEDTAVYYCAARVYPYNYWGQGTQVTVSS",
    "Measurement": "high polyreactivity"
  },
  {
    "Seq String": "QVQLVESGGGLVQAGGSLRLSCAASGRIFSRYAMGWYRQAPGKERELVAAITWSVGSTYYADSVKGRFTISRDNAKNTVYLQMNSLKPEDTAVSYCAKLVRYYKPGYDYGGQGTQVTVSS",
    "Measurement": "low polyreactivity"
  },
  {
    "Seq String": "QVQLVESGGGLVQAGGSLRLSCAASGSTFYTYAMGWYRQAPGKEMELVAAIRSAGSTYYADSVKGRFTISRDNAKNTVYLQMNSLKPEDTAVYYCNTVARSSVGYEYWGQGTQVTVSS",
    "Measurement": "high polyreactivity"
  },
  {
    "Seq String": "QVQLVESGGGLVQAGGSLRLSCAASGRIFKYYTMGWSRQAPGKERELVAAISRDDSTNYADSVKGRFTISRDNAKNTVYLQMNSLKPEDTAVYYCAKGYHQYAGFYYWGQGTQVTVSS",
    "Measurement": "high polyreactivity"
  },
  {
    "Seq String": "QVQLVESAGGLVQAGGSHRLSCAASGNIFYYYRMGWYRQEPGKESEFVAAISTSGGNTYYADSVKGRFTISRDNAKNTVYLQINSLKPEDTAVYYCAADDWPWGDAGVDYWGQGTQVTVSS",
    "Measurement": "low polyreactivity"
  },
  {
    "Seq String": "QVQLEESGGGLVQAGGSLRLSCAASGSTFESYAMGWYRQAPGKERELVATITRRSTRTYYADSVKGRFTISRDNAKNTVYLQMNSLKPEDTAVYYCAARVYTVRAIGMGYWGQGTQVTVSS",
    "Measurement": "high polyreactivity"
  },
  {
    "Seq String": "QVQLVESRGGLVQARGSLRLSCAASGRTFYPYAMGWYSPAPGKERELVATITGSGTTTYYADSVKGRFTLSRDNGNNTVYLQMNRRKPEDTAVYYSAADVWEVVTPYGTIDDDYWRQGTQVTVSS",
    "Measurement": "high polyreactivity"
  },
  {
    "Seq String": "QVQHVESCGGLVQAGGSLRLSCADSGRIFGDYVMGWYRQAPGKERELVASIDTSGGSTYDADSVKGGFTISRDIAKNTVYLQMNSVKPEDSAVYYCAAERKYFVFVYYQGWYDYWGQGTQVTVSS",
    "Measurement": "low polyreactivity"
  },
  {
    "Seq String": "QVHLVESGGALVQAGGSLRLSCASSGRTFGWNVMGWYRQAPGKERELVAAISGSGGSTYYADSLKGRFTISRDNAKNTVYLQMNSLKPEDTAVYYCAALYGPGREYDYWGQGTQVTVSS",
    "Measurement": "low polyreactivity"
  },
  {
    "Seq String": "PVQHVESGGGLVQAGGSLRLSCAASGSTLRTYAMGWYRQAPGKERELVAAISFSTTSTYYADSVKGRFTISRDNAKNTVYLQMNSLKPEDTADYYCAAGPRTRYQPDLPGCYYSWGQGTQVTVSS",
    "Measurement": "high polyreactivity"
  },
  {
    "Seq String": "QVQLVESGGGLVQAGGSLRLSCAASGLTFYQYAMGWYRQAPGKERELVAAISKSAGSTYYADSVKGSFTISRDNAKNTVYLQMNSLKPEDTAVYFCAARVLRLRYDYWGQGTQVTVSS",
    "Measurement": "high polyreactivity"
  },
  {
    "Seq String": "QVQLVESGGGLVQAGGSLRLSCAASGRTFWYYAMGGYRQAPGKERELVAYADSVKGRFTISRDNAKNTVYLQMNSLKPEDTAVYYCAVGPVVWFSSSLYYTDYYYWGQGTQVTVSS",
    "Measurement": "low polyreactivity"
  },
  {
    "Seq String": "QVQHVESGGGLVQAGGSLRLSCAASGGTFGSNTMGWYRQARGKERELVAAITSGVSTYYADSVKGRFTISRDNAKNTVYLQMNSLKPEDTAVFYCAADTTQVQGVEGDYWGQGTQVTVSS",
    "Measurement": "low polyreactivity"
  },
  {
    "Seq String": "QVQLVESGGGLVQAGGSLRLSCAASGRTFAGNAMGWYRQAPGKERELVAAISQGGGSTYYADSVKGRFTFSRDNATNSVYLQMNRLNPDDTAVYYCAAEIPRRWASFATLWYDYWGQGTQVTVSS",
    "Measurement": "low polyreactivity"
  }
]
